All figures here come from patent US9346815B2.

tested on: JAK1-dependent STAT6 phosphorylation downstream of IL-13 stimulation in BEAS-2B human bronchial epithelial cells; assay: JAK1 pathway assay in BEAS-2B cells (IL-13-pSTAT6, MSD); type: cell-based; conditions: read-out: IL13-pSTAT6 EC50 (uM)_BEAS-2B
PROPERTY_LABEL: EC50 (µM)
Give the quantity in µM, number only.

// worked examples, EC50 included
COMPOUND	UNIT_STRING	EC50
COC(=O)CCN1CCN(C(=O)Cn2cc(NC(=O)c3cnn4cccnc34)c(-c3cc(Cl)ccc3OC(F)F)n2)CC1 [Example 331]	µM	0.0176
CC(C)N1CCN(C(=O)Cn2cc(NC(=O)c3cnn4cccnc34)c(-c3cc(Cl)ccc3OC(F)F)n2)CC1 [Example 373]	µM	0.0342
CN(C)C1CCN(c2nc(-c3cc(Cl)ccc3OC(F)F)c(NC(=O)c3cnn4cccnc34)s2)CC1 [Example 188]	µM	0.0349
N#Cc1ccc(CN2CCN(C(=O)Cn3cc(NC(=O)c4cnn5cccnc45)c(-c4cc(Cl)ccc4OC(F)F)n3)CC2)cc1 [Example 238]	µM	0.0218

Give the measured EC50 for CN(CCC#N)C1CCN(C(=O)Cn2cc(NC(=O)c3cnn4cccnc34)c(-c3cc(Cl)ccc3OC(F)F)n2)CC1 [Example 63]
0.0122

Give reported EC50 value for N#CCCN1CCN(C(=O)Cn2cc(NC(=O)c3cnn4cccnc34)c(-c3cc(Cl)ccc3OC(F)F)n2)CC1 [Example 406]
0.0333

Query EC50 for N#CC1(CNC2CCN(C(=O)Cn3cc(NC(=O)c4cnn5cccnc45)c(-c4cc(Cl)ccc4OC(F)F)n3)CC2)CC1 [Example 468]
0.006
